# systemTested: T1, human LIV-1 (human, UniProt Q13433 29-755)
# T1 construct: whole, on cells; also called H-LIV1
# T1 sequence (looked up): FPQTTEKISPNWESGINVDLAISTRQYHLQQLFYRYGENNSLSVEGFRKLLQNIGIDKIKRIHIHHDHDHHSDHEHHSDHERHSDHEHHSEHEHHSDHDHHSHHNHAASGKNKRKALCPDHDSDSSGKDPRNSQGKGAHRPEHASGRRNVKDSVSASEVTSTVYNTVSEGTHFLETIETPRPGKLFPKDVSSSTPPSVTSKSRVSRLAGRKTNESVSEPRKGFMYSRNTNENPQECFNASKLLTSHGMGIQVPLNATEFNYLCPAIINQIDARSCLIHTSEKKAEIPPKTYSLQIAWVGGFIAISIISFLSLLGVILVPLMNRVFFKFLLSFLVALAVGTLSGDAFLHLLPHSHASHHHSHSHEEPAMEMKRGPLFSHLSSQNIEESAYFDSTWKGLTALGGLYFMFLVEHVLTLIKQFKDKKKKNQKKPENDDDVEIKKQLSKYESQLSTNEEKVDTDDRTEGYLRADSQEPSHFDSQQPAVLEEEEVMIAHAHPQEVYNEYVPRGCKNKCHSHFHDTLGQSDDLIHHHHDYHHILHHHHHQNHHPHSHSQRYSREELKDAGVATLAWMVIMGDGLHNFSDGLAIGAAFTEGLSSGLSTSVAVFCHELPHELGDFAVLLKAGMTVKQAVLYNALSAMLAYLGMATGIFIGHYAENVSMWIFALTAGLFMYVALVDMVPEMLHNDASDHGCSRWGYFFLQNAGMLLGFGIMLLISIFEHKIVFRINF
# test: FACS, HEK293/H_LIV-1 cells
I'd be grateful if you could share measured Top (MFI) for these entries.
Write down the numeric answer in MFI and omit the unit.

Give the measured Top (MFI) for 290F10G10.z2-MMAE (antibody, V domains shown, MMAE drug moiety conjugated; site and chain not stated, also called LM-001-MMAE) VH: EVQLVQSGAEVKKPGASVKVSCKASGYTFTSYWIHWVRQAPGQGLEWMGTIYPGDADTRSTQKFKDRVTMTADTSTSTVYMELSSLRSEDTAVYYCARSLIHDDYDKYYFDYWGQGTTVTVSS VL: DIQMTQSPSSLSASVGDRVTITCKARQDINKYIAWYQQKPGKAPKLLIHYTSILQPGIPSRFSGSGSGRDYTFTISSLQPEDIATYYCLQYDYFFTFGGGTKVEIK
19100

For the binder 124H4D11.p2.z4-Eribulin (antibody, V domains shown, Eribulin drug moiety conjugated; site and chain not stated, Antibody-drug conjugate of 124H4D11.p2.z4; human gamma 1/kappa) VH: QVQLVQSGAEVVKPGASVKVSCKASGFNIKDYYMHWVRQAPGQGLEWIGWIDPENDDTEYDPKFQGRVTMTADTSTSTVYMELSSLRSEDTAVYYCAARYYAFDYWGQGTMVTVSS VL: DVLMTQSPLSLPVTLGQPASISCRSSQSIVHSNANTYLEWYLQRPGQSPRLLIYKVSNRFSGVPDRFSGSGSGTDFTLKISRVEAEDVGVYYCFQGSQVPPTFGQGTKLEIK , give its measured Top (MFI) value.
19400

Return Top (MFI) (reported value) for this binder: 124H4D11.p2.z4-MMAE (antibody, V domains shown, MMAE drug moiety conjugated; site and chain not stated, Antibody-drug conjugate of 124H4D11.p2.z4; human gamma 1/kappa) VH: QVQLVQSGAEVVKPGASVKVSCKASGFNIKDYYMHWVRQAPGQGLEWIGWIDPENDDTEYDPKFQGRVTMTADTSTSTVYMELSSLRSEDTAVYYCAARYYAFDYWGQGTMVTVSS VL: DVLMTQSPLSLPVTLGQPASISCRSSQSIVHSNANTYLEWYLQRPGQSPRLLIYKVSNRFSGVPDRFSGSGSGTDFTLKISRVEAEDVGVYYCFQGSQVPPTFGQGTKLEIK
20200

Cited source: patent US20240325555A1
